# PROTOCOL_SUMMARY: In vitro Franz cell skin absorption, pig skin
# Type: in vitro ADME
# STUDY_CONDITIONS: read-out: S value (dermal/transdermal selectivity index, skin deposition/flux)
This listing pairs compounds with measured selectivity ratio at 24 h, 6 mM.
MEASURED_PARAMETER: selectivity ratio at 24 h, 6 mM

{"SMI": "C[C@@H]1O[C@@H](OC[C@H]2O[C@@H](Oc3c(-c4ccc(O)c(O)c4)oc4cc(O)cc(O)c4c3=O)[C@H](O)[C@@H](O)[C@@H]2O)[C@H](O)[C@H](O)[C@H]1O", "OBS_VALUE": 0.4}
{"SMI": "O=c1c(O)c(-c2ccc(O)cc2)oc2cc(O)cc(O)c12", "OBS_VALUE": 1.5}
